# System: PC3-PIP tumor model
# Set-up: species or system mice
# measurement context: mouse, in vivo
Numbered stars: 1 amine (or outer) side, 2 acyl side, 3 side chain; on linkers, the order of the positions; unused ones are H or OH. Bridge positions count the residues as written; N and C are the ends. Square brackets hold non-standard residues; d marks the D form. Side chains are listed from the residue outwards. Peptide text beside a SMILES is read from it. * marks the point of attachment. X2 = O=C(O)CN1CCN(CC(=O)O)CCN([C@H](CCC(=O)*)C(=O)O)CCN(CC(=O)O)CC1; DOTA = O=C(O)CN1CCN(CC(=O)O)CCN(CC(=O)*)CCN(CC(=O)O)CC1; Phe(3-Cl) = N[C@@H](Cc1cccc(Cl)c1)C(=O)O; Phe(4-Cl) = N[C@@H](Cc1ccc(Cl)cc1)C(=O)O; Arg(Me) = CNC(=N)NCCC[C@H](N)C(=O)O; Ethylenediamine = C(CN[*:2])N[*:1]; X1 = O=C(CC1CCN([*:1])CC1)[*:2]; Cit = NC(=O)NCCC[C@H](N)C(=O)O; Lys(Me) = CNCCCC[C@H](N)C(=O)O; Tle = CC(C)(C)[C@H](N)C(=O)O; 4Amb = NCc1ccc(C(=O)O)cc1; AEEA = NCCOCCOCC(=O)O; Aib = CC(C)(N)C(=O)O; βAla = NCCC(=O)O
recorded metric: AUC ratio [T/K]
Numbers only.

C[C@@H](O)[C@H](NC(=O)[C@@H](NC(=O)[C@@H]1CSSC[C@H](NC(=O)[C@H](Cc2ccccc2)NC(=O)C(C)(C)NC(=O)[C@@H](NC(=O)CC2CCN(C(=O)CC[C@H](C(=O)O)N3CCN(CC(=O)O)CCN(CC(=O)O)CCN(CC(=O)O)CC3)CC2)[C@@H](C)O)C(=O)N[C@@H](CCCCN)C(=O)N[C@@H](CCCNC(=N)N)C(=O)NC(C)(C)C(=O)N[C@@H](CC(N)=O)C(=O)N1)C(C)(C)C)C(N)=O [PSM-0218] (X2-[X1]T[Aib]FCKR[Aib]NC[Tle]T-NH2; disulfide 5-10); 1.2
C[C@@H](O)[C@H](NC(=O)[C@@H](NC(=O)[C@@H]1CSSC[C@H](NC(=O)[C@H](Cc2ccc(Cl)cc2)NC(=O)C(C)(C)NC(=O)[C@@H](NC(=O)CC2CCN(C(=O)CN3CCN(CC(=O)O)CCN(CC(=O)O)CCN(CC(=O)O)CC3)CC2)[C@@H](C)O)C(=O)N[C@@H](CCCCN)C(=O)N[C@@H](CCCNC(N)=O)C(=O)NC(C)(C)C(=O)N[C@@H](CC(N)=O)C(=O)N1)C(C)(C)C)C(N)=O [PSM-0365] ({DOTA}-[X1]T[Aib][Phe(4-Cl)]CK[Cit][Aib]NC[Tle]T-NH2; disulfide 5-10); 1.6
CC(=O)N[C@H](C(=O)NC(C)(C)C(=O)N[C@@H](Cc1cccc(Cl)c1)C(=O)N[C@H]1CSSC[C@@H](C(=O)N[C@H](C(=O)N[C@H](C(N)=O)[C@@H](C)O)C(C)(C)C)NC(=O)[C@H](CC(N)=O)NC(=O)[C@H](CCCCNC(=O)COCCOCCNC(=O)CN2CCN(CC(=O)O)CCN(CC(=O)O)CCN(CC(=O)O)CC2)NC(=O)[C@H](CCCNC(=N)N)NC(=O)[C@H](CCCCN)NC1=O)[C@@H](C)O [PSM-0243] (Ac-T[Aib][Phe(3-Cl)]CKRK([AEEA-DOTA])NC[Tle]T-NH2; disulfide 4-9); 0.53
C[C@@H](O)[C@H](NC(=O)[C@@H](NC(=O)[C@@H]1CSSC[C@H](NC(=O)[C@H](Cc2ccccc2)NC(=O)C(C)(C)NC(=O)[C@@H](NC(=O)CC2CCN(C(=O)CN3CCN(CC(=O)O)CCN(CC(=O)O)CCN(CC(=O)O)CC3)CC2)[C@@H](C)O)C(=O)N[C@@H](CCCCN)C(=O)N[C@@H](CCCNC(=N)N)C(=O)NC(C)(C)C(=O)N[C@@H](CC(N)=O)C(=O)N1)C(C)(C)C)C(N)=O [PSM-0492] ({DOTA}-[X1]T[Aib]FCKR[Aib]NC[Tle]T-NH2; disulfide 5-10); 2.1
C[C@@H](O)[C@H](NC(=O)[C@@H](NC(=O)[C@@H]1CSSC[C@H](NC(=O)[C@H](Cc2ccccc2)NC(=O)C(C)(C)NC(=O)[C@@H](NC(=O)CN2CCN(CC(=O)O)CCN(CC(=O)O)CCN(CC(=O)O)CC2)[C@@H](C)O)C(=O)N[C@@H](CCCCN)C(=O)N[C@@H](CCCNC(=N)N)C(=O)NC(C)(C)C(=O)N[C@@H](CC(N)=O)C(=O)N1)C(C)(C)C)C(N)=O [PSM-0580] ({DOTA}-T[Aib]FCKR[Aib]NC[Tle]T-NH2; disulfide 4-9); 1.6
C[C@@H](O)[C@H](NC(=O)[C@@H](NC(=O)[C@@H]1CSSC[C@H](NC(=O)[C@H](Cc2ccc(Cl)cc2)NC(=O)C(C)(C)NC(=O)c2ccc(CNC(=O)CN3CCN(CC(=O)O)CCN(CC(=O)O)CCN(CC(=O)O)CC3)cc2)C(=O)N[C@@H](CCCCN)C(=O)N[C@@H](CCCNC(=N)N)C(=O)NC(C)(C)C(=O)N[C@@H](CC(N)=O)C(=O)N1)C(C)(C)C)C(N)=O [PSM-0283] ({DOTA-4Amb}-[Aib][Phe(4-Cl)]CKR[Aib]NC[Tle]T-NH2; disulfide 3-8); 1.6
CNCCCC[C@@H]1NC(=O)[C@@H](NC(=O)[C@H](Cc2ccc(Cl)cc2)NC(=O)C(C)(C)NC(C)=O)CSSC[C@@H](C(=O)N[C@H](C(=O)NCCNC(=O)CN2CCN(CC(=O)O)CCN(CC(=O)O)CCN(CC(=O)O)CC2)C(C)(C)C)NC(=O)[C@H](CC(N)=O)NC(=O)C(C)(C)NC(=O)[C@H](CCCNC(=N)NC)NC1=O [PSM-0481] (Ac-[Aib][Phe(4-Cl)]C[Lys(Me)][Arg(Me)][Aib]NC[Tle]-{Ethylenediamine-DOTA}; disulfide 3-8); 2.6
C[C@@H](O)[C@H](NC(=O)CC1CCN(C(=O)CN2CCN(CC(=O)O)CCN(CC(=O)O)CCN(CC(=O)O)CC2)CC1)C(=O)NC(C)(C)C(=O)N[C@@H](Cc1ccc(Cl)cc1)C(=O)N[C@H]1CSSC[C@@H](C(=O)N[C@H](C(=O)NCCC(N)=O)C(C)(C)C)NC(=O)[C@H](CC(N)=O)NC(=O)C(C)(C)NC(=O)[C@H](CCCNC(=N)N)NC(=O)[C@H](CCCCN)NC1=O [PSM-0467] ({DOTA}-[X1]T[Aib][Phe(4-Cl)]CKR[Aib]NC[Tle][βAla]-NH2; disulfide 5-10); 1.3

# context switch: different molecule, same AUC ratio [T/K]
Need AUC ratio [T/K] of C[C@@H](O)[C@H](NC(=O)CN1CCN(CC(=O)O)CCN(CC(=O)O)CCN(CC(=O)O)CC1)C(=O)NC(C)(C)C(=O)N[C@@H](Cc1ccc(Cl)cc1)C(=O)N[C@H]1CSSC[C@@H](C(=O)N[C@H](C(N)=O)C(C)(C)C)NC(=O)[C@H](CC(N)=O)NC(=O)C(C)(C)NC(=O)[C@H](CCCNC(=N)N)NC(=O)[C@H](CCCCN)NC1=O [PSM-0534] ({DOTA}-T[Aib][Phe(4-Cl)]CKR[Aib]NC[Tle]-NH2; disulfide 4-9) , thanks.
1.1
